Origin of measurements: ChEMBL document CHEMBL4610046

Activity for assorted compounds
Protocol Description: Induction of DPPH reduction by H2S2 generated from parent compound by UV spectrometry
Set-up: scale not given: the % may be the effect or the level left
Response body: numeric value in %, unit text excluded.

Consider the worked cases shown below.
CC[Si](CC)(CC)OC(SSC(O[Si](CC)(CC)CC)C(C)C)C(C)C (centres undefined) = 30
NCCN = 40
CC(=O)SSC(C)=O = 40

Let's switch to this compound now.
Prompt: Suppose we examine the compound CC[Si](CC)(CC)OC(S)C(C)C (centres undefined) ; what Activity value has been reported?
Response: 15
